- System: NPC patient-derived skin fibroblasts
- ASSAY NAME: Amplex red cholesterol assay (free cholesterol)
- Format: cell-based, human
- ASSAY CONDITIONS: Homo sapiens, Skin fibroblast; NPCD fibroblasts; read-out: EC50, reduction of cholesterol accumulation
pEC50: −log10 of the molar value.
OBSERVATION TYPE: pEC50

Exam item: Which value of pEC50 has been reported for Cc1c(O)cc2c(c1C)O[C@](C)(CCC[C@H](C)CCC[C@H](C)CCCC(C)C)CC2 [γ-tocopherol, reference compound] in the records?
Marked response: 4.10 to 4.22
